Test system: 1a-H77 sub-genomic replicon, NS5B S282T
Experiment: microbe, parasite or virus in culture
Type: cell-based, hepatitis C virus
Conditions: Hepatitis C virus, read-out: EC50 S282T
Recorded pEC50, one value per entry.
Convention used: pEC50 is expressed as -log10 of the molar concentration.

compound	pEC50
CC(C)OC(=O)[C@H](C)N[P@](=O)(OC[C@H]1O[C@@H](n2ccc(=O)[nH]c2=O)[C@](C)(F)[C@@H]1O)Oc1ccccc1	6.60

# lookup: pEC50 of NC(=O)c1ncn([C@@H]2O[C@H](CO)[C@@H](O)[C@H]2O)n1 [Ribavirin, reference compound]
8.30

Hello, the source for this data is patent US9549941B2, in case you need it.
